test: recombinant UMI read abundance after kanamycin selection (control-corrected) (log10(CPM+1)); higher = more efficient recombination; extreme values may be limits of the assay; sequences stand for … in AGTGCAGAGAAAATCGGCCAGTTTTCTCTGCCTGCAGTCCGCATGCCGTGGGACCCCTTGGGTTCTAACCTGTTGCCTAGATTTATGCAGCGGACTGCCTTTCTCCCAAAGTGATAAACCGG…AGGTTGGTTTCACT; site = the 11-nt donor;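 also: IS621 bridge recombinase in Escherichia coli cells against a fixed T5 target plasmid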
Exercise: for every item that follows, state its recorded recombinant UMI read abundance (log10).
// keep it numeric: no unit symbol after the value

Quote recombinant UMI read abundance (log10) reported for CTCTACCCATGGACCGGTTTTCCCGGTAATCCGTATTTGCT (site CTCTACGCTAG) please. 0.00357

Quote recombinant UMI read abundance (log10) reported for CGGTGTCCATGGACCGGTTTTCCCGGTAATCCGTATTTGTT (site CGGAATCCTAA) please. 0.0121

Quote recombinant UMI read abundance (log10) reported for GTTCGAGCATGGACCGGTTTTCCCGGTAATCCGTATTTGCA (site GTTCGACCTTG) please. 0.0101

Quote recombinant UMI read abundance (log10) reported for TTAGCTACATGGACCGGTTTTCCCGGTAATCCGTATTTGTG (site TTAGCTTCTCA) please. 0.0149

Quote recombinant UMI read abundance (log10) reported for GATACTGCATGGACCGGTTTTCCCGGTAATCCGTATTTGCC (site GTTACTGCTGG) please. 1.4

Quote recombinant UMI read abundance (log10) reported for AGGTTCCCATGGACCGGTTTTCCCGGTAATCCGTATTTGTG (site AGGGTCCCTCA) please. 0.0158

Quote recombinant UMI read abundance (log10) reported for TACCTAGCATGGACCGGTTTTCCCGGTAATCCGTATTTGAA (site TAACTAGCTTT) please. 0

Quote recombinant UMI read abundance (log10) reported for ACTAAACCATGGACCGGTTTTCCCGGTAATCCGTATTTGCG (site ACTAAACCTCG) please. 0

Quote recombinant UMI read abundance (log10) reported for CCCGGTACATGGACCGGTTTTCCCGGTAATCCGTATTTGCA (site CCCGGTCCTTG) please. 0

Quote recombinant UMI read abundance (log10) reported for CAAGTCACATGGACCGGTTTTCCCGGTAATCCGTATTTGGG (site CAAGTAACTCC) please. 0.0617

Quote recombinant UMI read abundance (log10) reported for GTCAAACCATGGACCGGTTTTCCCGGTAATCCGTATTTGGT (site GACAAACCTAC) please. 0

Quote recombinant UMI read abundance (log10) reported for CGTGGAACATGGACCGGTTTTCCCGGTAATCCGTATTTGGT (site CGTGGAACTAC) please. 1.33

Quote recombinant UMI read abundance (log10) reported for CAATGATCATGGACCGGTTTTCCCGGTAATCCGTATTTGCT (site CAATGATCTAG) please. 2.19

Quote recombinant UMI read abundance (log10) reported for CGTGGAACATGGACCGGTTTTCCCGGTAATCCGTATTTGGT (site CGTGGAACTAA) please. 0.427

Quote recombinant UMI read abundance (log10) reported for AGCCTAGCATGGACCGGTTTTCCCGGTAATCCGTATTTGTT (site AGCCTAACTAA) please. 0.0384

Quote recombinant UMI read abundance (log10) reported for CATGTCACATGGACCGGTTTTCCCGGTAATCCGTATTTGGG (site CAAGTCACTCC) please. 0.0107

Quote recombinant UMI read abundance (log10) reported for CATAAAGCATGGACCGGTTTTCCCGGTAATCCGTATTTGAT (site CTTAAAGCTAT) please. 0

Quote recombinant UMI read abundance (log10) reported for GACTCACCATGGACCGGTTTTCCCGGTAATCCGTATTTGAC (site GACTCACCTGT) please. 0
